# SYSTEM: HRgpA-6H (Porphyromonas gingivalis) (UniProt P28784)
# ASSAY REMARKS: ELISA, coated HRgpA-6H
ASSAY ENDPOINT: OD450 nm

[[record]]
binder = "KB001 mouse Fab VL N54A (Fab, V domains shown) VH: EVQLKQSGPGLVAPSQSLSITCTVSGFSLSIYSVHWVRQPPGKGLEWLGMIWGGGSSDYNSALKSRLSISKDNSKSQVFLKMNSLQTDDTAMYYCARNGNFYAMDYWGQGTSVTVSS VL: QIVLTQSPAIMSASLGERVTMTCTASSSVSSSFLHWYQQKPGSSPQLWIYSTSALASGVPARFSGSGSGTSYSLTISSMEAEDAATYYCHQYHHSPYIYTFGGGTKLEIK"
assay_endpoint = "OD450 nm"
quantitative_result = 0.776

[[record]]
binder = "KB001 mouse Fab VH S28R (Fab, V domains shown) VH: EVQLKQSGPGLVAPSQSLSITCTVSGFRLSIYSVHWVRQPPGKGLEWLGMIWGGGSSDYNSALKSRLSISKDNSKSQVFLKMNSLQTDDTAMYYCARNGNFYAMDYWGQGTSVTVSS VL: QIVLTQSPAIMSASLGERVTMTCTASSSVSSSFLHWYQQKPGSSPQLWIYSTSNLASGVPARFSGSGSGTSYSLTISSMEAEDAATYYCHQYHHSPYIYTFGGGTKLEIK"
assay_endpoint = "OD450 nm"
quantitative_result = 0.458

[[record]]
binder = "KB001 mouse Fab VH I51V (Fab, V domains shown) VH: EVQLKQSGPGLVAPSQSLSITCTVSGFSLSIYSVHWVRQPPGKGLEWLGMVWGGGSSDYNSALKSRLSISKDNSKSQVFLKMNSLQTDDTAMYYCARNGNFYAMDYWGQGTSVTVSS VL: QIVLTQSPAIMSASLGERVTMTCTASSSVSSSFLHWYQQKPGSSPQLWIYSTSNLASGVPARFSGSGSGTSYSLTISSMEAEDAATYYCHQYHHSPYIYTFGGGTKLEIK"
assay_endpoint = "OD450 nm"
quantitative_result = 0.798

